growth inhibition listing for selected molecules.
- assay_info: NCI Yeast Anticancer Drug Screen. Data for the sgs1 mgt1 strain (AID 161);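 also: 0% = growth of cultures given vehicle only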
- conditions: S. cerevisiae sgs1 mgt1 strain, at 50.0 µM, hits give high values
About 79,000 compounds went through this panel and 15% of them were active in at least one assay; those are over-represented in the sample as a whole.
endpoint: growth inhibition (%)

• CCN(CC)CCCC(C)n1c(-c2ccc(OC)cc2)nc2cc(Cl)ccc21 (stereo unspecified) = 26.9
• CCc1nc(N)nc(C(=O)NCCNC(=O)c2nc(N)nc(CC)c2C)c1C = -11.6
• CCOC(=O)C(CC(c1ccc2c(c1)OCO2)C(C(=O)OCC)[N+](=O)[O-])C(=O)OCC (stereo unspecified) = 58.6
• CCCCCCNC(=O)C1=C(C)NC(C)=C(C(=O)NCCCCCC)C1 = -6.4
• C[n+]1cc(N)cc2ccccc21 = -6.75
• C(=N\OCc1ccccc1)/c1ncccc1C1OCCO1 = -0.5

Attribution: PubChem BioAssay (NCI)
